system: T1, recombinant human IL-6 (human, UniProt P05231 30-212, labeled with radioactive iodine)
T1 construct: Labeled probe in solution, added to wells that carry the synthetic peptides; also called IL-6 ligand; Interleukin-6
experiment-notes: radioiodinated IL-6 on peptide array
Catalogue of binders with associated log10 Counts/minute bound
On a log10 scale: recorded Counts/minute bound, unit counts/minute.

Observe how each entry below is paired with its result.
STPSLTTKAVLLVRKFQNS [Peptide B19] :: 4.09
YRLRFELRYRAERSKTFT [Peptide C20] :: 3.88
SSFYRLRFELRYRAERSKT [Peptide C3] :: 3.91
AVLLVRKFQNS [Peptide B28] :: 3.96
RYRAERSKTFT [Peptide C27] :: 3.50

Incoming: For PRSTPSLTTK [Peptide B12] , write its log10 Counts/minute bound.
Outgoing: 3.12

Incoming: For PRSTPSLT [Peptide B14] , write its log10 Counts/minute bound.
Outgoing: 2.97

Incoming: For AAGSHPSRWAGMGRALLLRSV (alanine-scan variant of the domain I 21-mer) [Peptide A40] , write its log10 Counts/minute bound.
Outgoing: 3.63

Incoming: For PRSTPSLTTKAVLLVRK [Peptide B5] , write its log10 Counts/minute bound.
Outgoing: 3.60

Incoming: For AGMGRRLLLRSV [Peptide A26] , write its log10 Counts/minute bound.
Outgoing: 3.88

Incoming: For PRSTPSLTTKAVLLVRKF [Peptide B4] , write its log10 Counts/minute bound.
Outgoing: 3.67

This collection of values is drawn from patent US20040092720A1.
